# MEASUREMENT TARGET: T1, Avi/His-HuIL18BPa (recombinant human IL-18BP isoform A with Avi and poly-His tags) (human, biotinylated with BirA on the Avi tag in some assays)
# T1 chain: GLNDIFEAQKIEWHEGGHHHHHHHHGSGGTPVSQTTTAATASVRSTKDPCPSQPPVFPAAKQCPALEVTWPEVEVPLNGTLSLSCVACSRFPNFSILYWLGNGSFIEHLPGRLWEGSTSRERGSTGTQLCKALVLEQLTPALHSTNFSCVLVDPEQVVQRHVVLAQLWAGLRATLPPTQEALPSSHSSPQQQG
# TEST NAME: cell-based or functional assay
Note to self: use True only for EC50 of IFNγ release, human PBMCs readings below 8 nM; a reading exactly at 8 nM still gets False.

Example entries and their recorded answers appear below.
[
  {
    "BINDER": "anti-IL-18BP antibody variant BP-04.11 (antibody, V domains shown) VH: QVQLVQSGAEVKKPGASVKVSCKASGYTFTDYDMHWVRQAPGQGLEWMGIYSTYYGVVSYAQKFQGRVTMTRDKSTSTVYMELSSLRSEDTAVYYCARSGTYNYGTRESHALDYWGQGTLVTVSS VL: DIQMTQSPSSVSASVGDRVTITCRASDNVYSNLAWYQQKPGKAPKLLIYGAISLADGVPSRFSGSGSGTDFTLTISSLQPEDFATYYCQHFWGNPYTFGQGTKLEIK",
    "ASSIGNED CATEGORY": "True"
  },
  {
    "BINDER": "anti-IL-18BP antibody variant BP-04.13 (antibody, V domains shown) VH: QVQLVQSGAEVKKPGASVKVSCKASGYTFTDYDMHWVRQAPGQGLEWMGIISTYYGDVSYAQKFQGRVTMTRDKSTSTVYMELSSLRSEDTAVYYCARSGTYYYGTRESHPFDYWGQGTLVTVSS VL: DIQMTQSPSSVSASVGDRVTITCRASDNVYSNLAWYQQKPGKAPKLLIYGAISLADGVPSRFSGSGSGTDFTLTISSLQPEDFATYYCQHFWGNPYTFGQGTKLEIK",
    "ASSIGNED CATEGORY": "False"
  },
  {
    "BINDER": "anti-IL-18BP antibody variant BP-04.22 (antibody, V domains shown) VH: QVQLVQSGAEVKKPGASVKVSCKASGYTFTDYDMHWVRQAPGQGLEWMGIISTYYGVVSYAQKKQGRVTMTRDKSTSTVYMELSSLRSEDTAVYYCARSGTYYYGTRESHALDYWGQGTLVTVSS VL: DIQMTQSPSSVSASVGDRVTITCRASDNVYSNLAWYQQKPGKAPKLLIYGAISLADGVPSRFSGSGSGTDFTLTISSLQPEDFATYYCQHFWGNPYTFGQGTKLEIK",
    "ASSIGNED CATEGORY": "True"
  },
  {
    "BINDER": "anti-IL-18BP antibody variant BP-04.18 (antibody, V domains shown) VH: QVQLVQSGAEVKKPGASVKVSCKASGYTFTDYDMHWVRQAPGQGLEWMGIISTYYGDVSYAQKKQGRVTMTRDKSTSTVYMELSSLRSEDTAVYYCARSGTYNYGTRESHALDYWGQGTLVTVSS VL: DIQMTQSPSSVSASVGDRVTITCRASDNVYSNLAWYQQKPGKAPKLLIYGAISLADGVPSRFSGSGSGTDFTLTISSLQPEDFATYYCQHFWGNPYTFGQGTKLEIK",
    "ASSIGNED CATEGORY": "False"
  }
]

## Input Consider anti-IL-18BP antibody variant BP-04.12 (antibody, V domains shown) VH: QVQLVQSGAEVKKPGASVKVSCKASGYTFTDYDMHWVRQAPGQGLEWMGIYSTYYGVVSYAQKKQGRVTMTRDKSTSTVYMELSSLRSEDTAVYYCARSGTYYYGTRESHALDYWGQGTLVTVSS VL: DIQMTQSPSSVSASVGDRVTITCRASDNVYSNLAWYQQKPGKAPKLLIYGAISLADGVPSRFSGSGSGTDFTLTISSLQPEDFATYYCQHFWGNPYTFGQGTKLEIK . Does its EC50 of IFNγ release, human PBMCs lie strictly below 8 nM?
## Output False

src = patent US20250333523A1
